- STUDY TARGET: T1, full length human SIRPα v1 stably expressed on CHOK1 or 293F cells (human, UniProt P78324 31-504)
- T1 construct: whole, on cells; also called CHOK1-human SIRPα v1; CHOK1-hSIRPα v1
- T1 sequence (P78324 31-504): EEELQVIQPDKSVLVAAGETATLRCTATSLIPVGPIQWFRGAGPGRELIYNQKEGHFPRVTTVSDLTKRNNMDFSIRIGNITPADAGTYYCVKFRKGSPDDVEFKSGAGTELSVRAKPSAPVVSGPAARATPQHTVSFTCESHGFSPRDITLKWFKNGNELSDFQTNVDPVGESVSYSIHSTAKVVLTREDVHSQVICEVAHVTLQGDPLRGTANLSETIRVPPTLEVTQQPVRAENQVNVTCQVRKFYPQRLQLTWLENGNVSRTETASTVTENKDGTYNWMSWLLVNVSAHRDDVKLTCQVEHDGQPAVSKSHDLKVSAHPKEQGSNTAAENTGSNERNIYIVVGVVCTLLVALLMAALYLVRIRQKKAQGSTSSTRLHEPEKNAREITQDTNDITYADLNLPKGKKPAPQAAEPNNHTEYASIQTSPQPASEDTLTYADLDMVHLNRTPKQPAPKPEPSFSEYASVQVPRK
- EXPERIMENT DESCRIPTION: FACS, CHOK1-hSIRPα v1 cells
- Source text: All the humanized antibodies as tested were confirmed to retain the similar activity as the parental antibody of 025c to bind to SIRP family members.
Quick list: TOP MFI per entry.
// return numeric value only (unit: MFI, not printed)

Value lookup for TOP MFI; key = hu025.060 (antibody, V domains shown, Humanized 025; also called hu025.60) VH: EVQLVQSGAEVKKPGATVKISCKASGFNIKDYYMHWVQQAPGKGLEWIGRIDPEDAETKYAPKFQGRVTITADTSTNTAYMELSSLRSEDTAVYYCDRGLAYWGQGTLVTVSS VL: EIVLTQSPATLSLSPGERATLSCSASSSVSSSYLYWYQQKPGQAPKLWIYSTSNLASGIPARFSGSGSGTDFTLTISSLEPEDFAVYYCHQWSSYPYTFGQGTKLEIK 61500

Try the binder hu025.059 (antibody, V domains shown, Humanized 025; also called hu025.59) VH: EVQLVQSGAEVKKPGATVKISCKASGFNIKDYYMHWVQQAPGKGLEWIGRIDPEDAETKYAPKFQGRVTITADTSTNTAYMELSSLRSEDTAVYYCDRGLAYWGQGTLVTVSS VL: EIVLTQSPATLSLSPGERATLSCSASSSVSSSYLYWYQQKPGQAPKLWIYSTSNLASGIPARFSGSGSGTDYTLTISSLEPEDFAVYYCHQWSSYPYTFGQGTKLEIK 59400

Try the binder hu025.033 (antibody, V domains shown, Humanized 025) VH: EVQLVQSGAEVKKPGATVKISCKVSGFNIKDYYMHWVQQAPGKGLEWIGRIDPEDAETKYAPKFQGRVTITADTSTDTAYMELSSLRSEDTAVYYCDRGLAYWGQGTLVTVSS VL: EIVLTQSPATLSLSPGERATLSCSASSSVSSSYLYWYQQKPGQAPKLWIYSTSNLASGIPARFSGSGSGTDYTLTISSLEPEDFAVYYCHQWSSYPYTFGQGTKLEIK 53800

Try the binder hu025.023 (antibody, V domains shown, Humanized 025; also called hu025.23) VH: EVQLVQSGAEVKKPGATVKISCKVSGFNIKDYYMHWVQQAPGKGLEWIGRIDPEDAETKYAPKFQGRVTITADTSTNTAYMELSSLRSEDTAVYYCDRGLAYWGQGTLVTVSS VL: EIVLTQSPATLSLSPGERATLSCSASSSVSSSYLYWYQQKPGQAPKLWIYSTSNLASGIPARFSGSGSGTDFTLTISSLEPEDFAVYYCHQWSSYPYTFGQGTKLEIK 57800
